Target: αC-conotoxin PrXA (Conus parius, UniProt P0C8S5 52-83)
Sequence (P0C8S5 52-83): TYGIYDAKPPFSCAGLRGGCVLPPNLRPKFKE
Experiment: SPR
Conditions: tags: none; label: 5' biotin
Quantity kind: Kd (nM)

* 5'-biotin B4 (ssDNA) DNA: GCCTGTTGTGAGCCTCCTGTCGAATACGCACATACTGTGTACCTTGAATTTATATTGAGCGTTTATTCTTGTCTCCC | 329
